Source of measurements: patent US20220324835A1

# MEASURED ON: Cbl-b (Homo sapiens, UniProt Q13191)
# Sequence (Q13191 36-427): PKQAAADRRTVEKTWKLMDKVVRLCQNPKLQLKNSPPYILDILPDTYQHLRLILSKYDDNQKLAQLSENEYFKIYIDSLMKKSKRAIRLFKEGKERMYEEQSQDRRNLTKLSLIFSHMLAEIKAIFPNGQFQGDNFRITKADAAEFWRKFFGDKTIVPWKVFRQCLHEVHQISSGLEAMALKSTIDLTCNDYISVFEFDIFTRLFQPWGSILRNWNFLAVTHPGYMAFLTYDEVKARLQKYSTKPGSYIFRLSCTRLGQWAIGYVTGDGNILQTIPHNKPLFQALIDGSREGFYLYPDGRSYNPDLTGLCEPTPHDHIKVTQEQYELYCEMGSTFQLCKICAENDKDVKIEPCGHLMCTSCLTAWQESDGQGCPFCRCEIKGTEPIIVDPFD
# METHOD SUMMARY: Cbl-b activity assay (Cbl-b inhibition assay), TR-FRET of Cbl-b interaction with UbcH5B-Ub
# Type: biochemical
# TEST CONDITIONS: assay buffer with 100 mM NaCl, 60 nM Src kinase; read-out: Cbl-b activity IC50
METRIC NAME: IC50

Consider the following illustrative entries.
Can you look up the measured IC50 of CC(Cc1n[nH]cc1CO)c1cccc(N2Cc3c(cccc3C(F)(F)F)C2=O)c1 (stereo not shown) [Compound 271] for me? 3000 to 10000 nM

Would you mind doing Cc1conc1C[C@H](C)c1cccc(N2Cc3c(cccc3C(F)(F)F)C2=O)c1 [Compound 367b] as well? 1000 to 3000 nM

Would you mind doing Cn1cnnc1CC1(c2cccc(N3Cc4c(cc(CN5CC[C@H]6C[C@H]65)cc4C(F)(F)F)C3=O)c2)COC1 (single isomer, unassigned) [Compound 486a] as well? < 100 nM

Attention now shifts to the item below.
Can you look up the measured IC50 of Cc1conc1C[C@@H](C)c1cccc(N2Cc3c(cccc3C(F)(F)F)C2=O)c1 [Compound 367a] for me? 100 to 300 nM

----------
# Tested on: T-cell
# METHOD SUMMARY: IL-2 secretion from T-cells co-stimulated with anti-CD3 and anti-CD28 antibody (Biological Example 2)
# Format: cell-based, human
# TEST CONDITIONS: Homo sapiens, T-cell, fold change over baseline; 1 μM Cbl-b inhibitor; primary human total T-cells; read-out: IL-2 secretion Anti-CD3/Anti-CD28 stimulation
Parameter: fold induction at 1 µM. Scope: all listed entries.

Consider the following illustrative entries.
Can you look up the measured fold induction at 1 µM of C[C@H](Sc1nncn1C)c1cccc(NC(=O)c2cc(C(=O)N3C[C@H](O)C[C@@H]3C)ccn2)c1 [Compound 151] for me? > 7.5

Would you mind doing C[C@H](Cc1nncn1C)c1cccc(NC(=O)c2n[nH]c3c2CCC3)c1 [Compound 313] as well? 1.01 to 2.5

Would you mind doing C[C@H](Cc1nncn1C)c1cccc(NC(=O)c2cc(C3(O)COC3)cc(C(F)(F)F)n2)c1 [Compound 190] as well? 1.01 to 2.5

Would you mind doing C[C@H](Cc1nncn1C)c1cccc(NC(=O)c2cccc(C(C)(C)C)n2)c1 [Compound 321] as well? 2.51 to 5

***
Can you look up the measured fold induction at 1 µM of Cc1ccc(C(=O)Nc2cccc(C(C)Cc3nccn3C)c2)nc1C1CC1 (stereo not shown) [Compound 214] for me? > 7.5

Would you mind doing Cn1cnnc1CC(C)(F)c1cccc(N2Cc3c(cccc3C(F)(F)F)C2=O)c1 (racemic) [Compound 298] as well? 5 to 7.5

Would you mind doing Cc1[nH]cnc1CC(C)c1cccc(N2Cc3c(cccc3C(F)(F)F)C2=O)c1 (stereo not shown) [Compound 272] as well? < 1

----------
# System: T-cell
# METHOD SUMMARY: IL-2 secretion from T-cells stimulated with anti-CD3 antibody alone (Biological Example 2)
# Assay type: cell-based, human
# TEST CONDITIONS: Homo sapiens, T-cell; 1 μM Cbl-b inhibitor; fold change over baseline (anti-CD3/anti-CD28 stimulated T-cells without inhibitor); read-out: IL-2 secretion Anti-CD3 stimulation
METRIC NAME: fold induction at 1 µM

Request body: readout fold induction at 1 µM, system T-cell, query Cc1cc(C(=O)Nc2cccc(C3(Cc4nncn4C)COC3)c2)n2nc(C(F)(F)F)cc2n1 [Example 598] . Return the value. < 0.05

Would you mind doing COC1CCN(Cc2cc3c(c(C(F)(F)F)c2)CN(c2cccc(C4(Cc5nncn5C)COC4)c2)C3=O)CC1 [Example 632] as well? > 0.201

Would you mind doing Cn1cnnc1CC1(c2cccc(N3Cc4c(cc(CN5CCCC(F)(F)C5)cc4C(F)(F)F)C3=O)c2)COC1 [Example 693] as well? > 0.201
